tested on: rice (Oryza sativa L.); experiment: Test Example 1: foliar treatment, growth inhibition rate, rice; type: in vivo; details: 31 g/ha active ingredient, visually observed 17th to 23rd day after application
readout.label: Growth inhibition rate (%) Rice
Answer format: numeric, % implied, no suffix.

[[record]]
molecule = "COC(=O)c1c(S(C)(=O)=O)ccc(C(=O)c2cnn(C)c2OC(=O)SC(C)C)c1C [compound 86]"
measure_unit = "%"
value_observed = 95

[[record]]
molecule = "COC(=O)c1c(S(C)(=O)=O)ccc(C(=O)c2cnn(C)c2OC(=O)SC)c1C [Compound No. 3]"
measure_unit = "%"
value_observed = 100

[[record]]
molecule = "CCCSC(=O)Oc1c(C(=O)c2ccc(S(C)(=O)=O)c(C(=O)OC)c2C)cnn1CC [compound 85]"
measure_unit = "%"
value_observed = 95

[[record]]
molecule = "CCSC(=O)Oc1c(C(=O)c2ccc(S(C)(=O)=O)c(CC(=O)OC)c2C)cnn1C [compound 64]"
measure_unit = "%"
value_observed = 70

[[record]]
molecule = "CCSC(=O)Oc1c(C(=O)c2ccc(S(C)(=O)=O)c(CC#N)c2C)cnn1C [compound 83]"
measure_unit = "%"
value_observed = 80


stdin: Return reported Growth inhibition rate (%) Rice. Input molecule: CCC(C)SC(=O)Oc1c(C(=O)c2ccc(S(C)(=O)=O)c(C(=O)OC)c2C)cnn1CC (centres unmarked) [compound 89]
stdout: 100

stdin: Return reported Growth inhibition rate (%) Rice. Input molecule: COCCOc1c(S(C)(=O)=O)ccc(C(=O)c2cnn(C)c2OC(=O)SC(C)(C)C)c1C [compound 241]
stdout: 90

stdin: Return reported Growth inhibition rate (%) Rice. Input molecule: COCCOc1c(S(C)(=O)=O)ccc(C(=O)c2cnn(C)c2OC(=O)SC)c1C [compound 233]
stdout: 80

###

system: velvetleaf; assay: Test Example 2: soil application on the day after sowing, growth inhibition rate, velvetleaf; format: in vivo, Abutilon theophrasti MEDIC.; details: 250 g/ha active ingredient, observed on 19th to 24th day
Parameter: Growth inhibition rate (%) Velvetleaf. Scope: all listed entries.
Answer format: numeric, % implied, no suffix.

[[record]]
compound = "CCSC(=O)Oc1c(C(=O)c2ccc(S(C)(=O)=O)c(OC3CCOC3)c2C)cnn1C (stereo not shown)"
readout_label = "Growth inhibition rate (%) Velvetleaf"
value_observed = 20

[[record]]
compound = "CCn1ncc(C(=O)c2ccc(S(C)(=O)=O)c(C(=O)OC)c2C)c1OC(=O)SC"
readout_label = "Growth inhibition rate (%) Velvetleaf"
value_observed = 60

[[record]]
compound = "CCOCCOc1c(S(C)(=O)=O)ccc(C(=O)c2cnn(C)c2OC(=O)SCC)c1C"
readout_label = "Growth inhibition rate (%) Velvetleaf"
value_observed = 40

[[record]]
compound = "CCSC(=O)Oc1c(C(=O)c2ccc(S(C)(=O)=O)c(SC)c2Cl)cnn1C"
readout_label = "Growth inhibition rate (%) Velvetleaf"
value_observed = 0

[[record]]
compound = "CCSC(=O)Oc1c(C(=O)c2ccc(S(C)(=O)=O)c(OC)c2Cl)cnn1C"
readout_label = "Growth inhibition rate (%) Velvetleaf"
value_observed = 90


stdin: Return reported Growth inhibition rate (%) Velvetleaf. Input compound: COCCOc1c(S(C)(=O)=O)ccc(C(=O)c2cnn(C)c2OC(=O)SC)c1C
stdout: 100

stdin: Return reported Growth inhibition rate (%) Velvetleaf. Input compound: CCSC(=O)Oc1c(C(=O)c2ccc(S(C)(=O)=O)c(OCCSC)c2C)cnn1C
stdout: 0

stdin: Return reported Growth inhibition rate (%) Velvetleaf. Input compound: CCn1ncc(C(=O)c2ccc(S(C)(=O)=O)c(OCCOC)c2C)c1OC(=O)SC(C)C
stdout: 50

stdin: Return reported Growth inhibition rate (%) Velvetleaf. Input compound: CCSC(=O)Oc1c(C(=O)c2ccc(S(C)(=O)=O)c(OCCCOC)c2C)cnn1C
stdout: 30

stdin: Return reported Growth inhibition rate (%) Velvetleaf. Input compound: CCSC(=O)Oc1c(C(=O)c2ccc(S(C)(=O)=O)c(CC(=O)OC)c2C)cnn1C
stdout: 30

stdin: Return reported Growth inhibition rate (%) Velvetleaf. Input compound: CCSC(=O)Oc1c(C(=O)c2ccc(S(C)(=O)=O)c(S(C)(=O)=O)c2Cl)cnn1C
stdout: 70

###

tested on: velvetleaf; assay: Test Example 2: soil application on the day after sowing, growth inhibition rate, velvetleaf; type: in vivo, Abutilon theophrasti MEDIC.; conditions: 250 g/ha active ingredient, observed on 19th to 24th day
Classify by measured Growth inhibition rate (%) Velvetleaf: yes if it is equal to or exceeds 70%, no if it is smaller.

[[record]]
compound = "CCCSC(=O)Oc1c(C(=O)c2ccc(S(C)(=O)=O)c(OCCOC)c2C)cnn1C"
class = "yes"

[[record]]
compound = "CCSC(=O)Oc1c(C(=O)c2ccc(S(C)(=O)=O)c(OCC3CCCCO3)c2C)cnn1C (centres unmarked)"
class = "no"

[[record]]
compound = "CSC(=O)Oc1c(C(=O)c2ccc(S(C)(=O)=O)c(C3=NOCC3)c2C)cnn1C"
class = "yes"

[[record]]
compound = "CCSC(=O)Oc1c(C(=O)c2ccc(S(C)(=O)=O)c(C(=O)OC)c2Cl)cnn1CC"
class = "yes"

[[record]]
compound = "CCOC(=O)c1c(S(C)(=O)=O)ccc(C(=O)c2cnn(CC)c2OC(=O)SCC)c1C"
class = "yes"

[[record]]
compound = "CCOC(=O)COc1c(S(C)(=O)=O)ccc(C(=O)c2cnn(C)c2OC(=O)SCC)c1C"
class = "no"


// next entry
stdin: Please check the record CCSC(=O)Oc1c(C(=O)c2ccc(S(C)(=O)=O)c(CN(C)CC#N)c2C)cnn1C and state if its Growth inhibition rate (%) Velvetleaf is at or above 70%.
stdout: no

###

test system: greenfoxtail; assay: Test Example 2: soil application on the day after sowing, growth inhibition rate, greenfoxtail; type: in vivo, Setaria viridis L.; conditions: Setaria viridis, 250 g/ha active ingredient, observed on 19th to 24th day
Parameter: inhibition at 250 g/ha. Scope: all listed entries.
Answer format: numeric, % implied, no suffix.

stdin: Answer with inhibition at 250 g/ha of CCSC(=O)Oc1c(C(=O)c2ccc(S(C)(=O)=O)c(OC)c2C)cnn1C measured for greenfoxtail.
stdout: 70

stdin: Answer with inhibition at 250 g/ha of CCSC(=O)Oc1c(C(=O)c2ccc(S(C)(=O)=O)c(C(=O)OC)c2C)cnn1CC measured for greenfoxtail.
stdout: 98

stdin: Answer with inhibition at 250 g/ha of CCSC(=O)Oc1c(C(=O)c2ccc(S(C)(=O)=O)c(C(=O)OC)c2C)cnn1C measured for greenfoxtail.
stdout: 100

###

test system: velvetleaf; test: Test Example 2: soil application on the day after sowing, growth inhibition rate, velvetleaf; format: in vivo, Abutilon theophrasti MEDIC.; settings: 250 g/ha active ingredient, observed on 19th to 24th day
Classify by measured Growth inhibition rate (%) Velvetleaf: class 1 if it is equal to or exceeds 70%, class 0 if it is smaller.

[[record]]
mol_smiles = "CCSC(=O)Oc1c(C(=O)c2ccc(S(C)(=O)=O)c(OCCOC)c2Cl)cnn1C"
experimental_target = "velvetleaf"
class = "class 1"

[[record]]
mol_smiles = "CCSC(=O)Oc1c(C(=O)c2ccc(S(C)(=O)=O)c(C(=O)SC)c2Cl)cnn1C"
experimental_target = "velvetleaf"
class = "class 0"

[[record]]
mol_smiles = "CCSC(=O)Oc1c(C(=O)c2ccc(S(C)(=O)=O)c(C(=O)OC)c2Cl)cnn1C"
experimental_target = "velvetleaf"
class = "class 1"

[[record]]
mol_smiles = "CCSC(=O)Oc1c(C(=O)c2ccc(S(C)(=O)=O)c(OC(C)C)c2C)cnn1C"
experimental_target = "velvetleaf"
class = "class 0"


// next entry
stdin: Please check the record CCCOc1c(S(C)(=O)=O)ccc(C(=O)c2cnn(C)c2OC(=O)SCC)c1C and state if its Growth inhibition rate (%) Velvetleaf is at or above 70%.
stdout: class 0

###

System: barnyardgrass (Echinochloa crus-galli L.)
Experiment: Test Example 1: foliar treatment, growth inhibition rate, barnyardgrass
Format: in vivo
Conditions: 31 g/ha active ingredient, visually observed 17th to 23rd day after application
Description: Upland field soil was put into a 1/170,000 hectare pot, and seeds of various plants were sown. […]
readout.label: Growth inhibition rate (%) Barnyardgrass
Answer format: numeric, % implied, no suffix.

[[record]]
compound = "CCSC(=O)Oc1c(C(=O)c2ccc(S(C)(=O)=O)c(CCOC)c2C)cnn1C [compound 75]"
value_observed = 98


stdin: Return reported Growth inhibition rate (%) Barnyardgrass. Input compound: CCSC(=O)Oc1c(C(=O)c2ccc(S(C)(=O)=O)c(COCC(F)(F)F)c2Cl)cnn1C [compound 70]
stdout: 100

stdin: Return reported Growth inhibition rate (%) Barnyardgrass. Input compound: CCn1ncc(C(=O)c2ccc(S(C)(=O)=O)c(OCCOC)c2C)c1OC(=O)SC [compound 234]
stdout: 100

stdin: Return reported Growth inhibition rate (%) Barnyardgrass. Input compound: C=C(C)CSC(=O)Oc1c(C(=O)c2ccc(S(C)(=O)=O)c(C(=O)OC)c2C)cnn1CC [compound 101]
stdout: 100
